# System: NCI-H2066 (Squamous Cell Lung Carcinoma)
# assayName: Bliss excess, mean over the matrix (fraction); higher = more synergy;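 note: after 72 h of two-drug dosing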
Record form. Attribute: Bliss excess. Fill in for each entry.
Please give the numeric answer without any surrounding text.

*Q* Can you look up the measured Bliss excess of CN(C)CCCOc1ccc(-c2ccc3ncc4c(c3c2)n(C2CCOCC2)c(=O)n4C)cn1 [AZD0156] + C=CCn1c(=O)c2cnc(Nc3ccc(N4CCN(C)CC4)cc3)nc2n1-c1cccc(C(C)(C)O)n1 [AZD1775] (first compound max 1 µM, partner max 1 µM) for me?
*A* -0.07

*Q* Please report the recorded Bliss excess for CN(CCO)CC[C@H](CSc1ccccc1)Nc1ccc(S(=O)(=O)NC(=O)c2ccc(N3CCC([C@@H](O)c4ccccc4-c4ccc(Cl)cc4)CC3)cc2)cc1S(=O)(=O)C(F)(F)F [AZD4320] + C1CN(CCC1(C(=O)N[C@@H](CCO)C2=CC=C(C=C2)Cl)N)C3=NC=NC4=C3C=CN4 [Capivasertib] (first compound max 1 µM, 7x7, partner max 3 µM) .
*A* 0.0311

*Q* Would you mind telling me what Bliss excess value was observed for Cc1c2c(nn1C)CSCc1cc(n(C)n1)CSc1cc(c3ccccc3c1)OCCCc1c(C(=O)O)n(C)c3c-2c(Cl)ccc13 [AZD5991] + Cn1cnc2c(F)c(Nc3ccc(Br)cc3Cl)c(C(=O)NOCCO)cc21 [Selumetinib] (first compound max 1 µM, 7x7, partner max 3 µM) ?
*A* 0.0459

###

# System: CAS-1 (Glioblastoma)
# assayName: Bliss excess, mean over the matrix (fraction); higher = more synergy
Label met for high-side Bliss excess (at or above 0.01) and not met for low-side Bliss excess (below it).

*Q* Entry COc1nnc2ccc(N3CCC(c4ccc(OCCN5CCN(C)C(=O)[C@H]5C)cc4)CC3)nn12 [AZD5153] + CN(CC[C@H](CSC1=CC=CC=C1)NC2=C(C=C(C=C2)S(=O)(=O)NC(=O)C3=CC=C(C=C3)N4CCC(CC4)[C@H](C5=CC=CC=C5C6=CC=C(C=C6)Cl)O)S(=O)(=O)C(F)(F)F)CCO [AZD4320] (first compound max 1 µM, 7x7, partner max 1 µM) : is its Bliss excess no less than 0.01?
*A* met

*Q* Check if Bliss excess >= 0.01 (inclusive). Item: CN(C)CCCOc1ccc(-c2ccc3ncc4c(c3c2)n(C2CCOCC2)c(=O)n4C)cn1 [AZD0156] + C[C@@H]1COCCN1C2=NC(=NC(=C2)C3(CC3)[S@](=N)(=O)C)C4=C5C=CNC5=NC=C4 [AZD6738] (first compound max 1 µM, 7x7, partner max 10 µM)
*A* not met

*Q* I'd appreciate it if you could say whether C=CCn1c(=O)c2cnc(Nc3ccc(N4CCN(C)CC4)cc3)nc2n1-c1cccc(C(C)(C)O)n1 [AZD1775] + C1CN(CCC1(C(=O)N[C@@H](CCO)C2=CC=C(C=C2)Cl)N)C3=NC=NC4=C3C=CN4 [Capivasertib] (first compound max 3 µM, partner max 3 µM) has Bliss excess at least equal to 0.01.
*A* met

*Q* Please tell me: is the molecule Cc1c2c(nn1C)CSCc1cc(n(C)n1)CSc1cc(c3ccccc3c1)OCCCc1c(C(=O)O)n(C)c3c-2c(Cl)ccc13 [AZD5991] + CN(C)CCCOc1ccc(-c2ccc3ncc4c(c3c2)n(C2CCOCC2)c(=O)n4C)cn1 [AZD0156] (first compound max 1 µM, 7x7, partner max 1 µM) at or over 0.01 in terms of Bliss excess?
*A* met

*Q* Has COc1nnc2ccc(N3CCC(c4ccc(OCCN5CCN(C)C(=O)[C@H]5C)cc4)CC3)nn12 [AZD5153] + Cn1cnc2c(F)c(Nc3ccc(Br)cc3Cl)c(C(=O)NOCCO)cc21 [Selumetinib] (first compound max 1 µM, 7x7, partner max 10 µM) a recorded Bliss excess greater than or equal to 0.01?
*A* not met

*Q* Given CCN(CCO)CCCOc1ccc2c(Nc3cc(CC(=O)Nc4cccc(F)c4)[nH]n3)ncnc2c1 [AZD2811] + O=C(c1cc(Cc2n[nH]c(=O)c3ccccc23)ccc1F)N1CCN(C(=O)C2CC2)CC1 [Olaparib] (first compound max 1 µM, 7x7, partner max 10 µM) , state whether its Bliss excess is at least 0.01.
*A* not met

*Q* Does the reported Bliss excess for COc1cccc(OCCCN)c1-c1cc(Nc2cnc(C#N)cn2)n[nH]1 [Prexasertib] + CCc1c2c(nc3ccc(O)cc13)-c1cc3c(c(=O)n1C2)COC(=O)[C@]3(O)CC [SN-38] (first compound max 1 µM, 7x7, partner max 0.3 µM) fall at or above the 0.01 mark?
*A* met

The values you see were collected from the supplement of paper PMC11061612.
